Experimental system: Full-length inactive AKT1 (Homo sapiens (Human))
Sequence (P31749 whole entry): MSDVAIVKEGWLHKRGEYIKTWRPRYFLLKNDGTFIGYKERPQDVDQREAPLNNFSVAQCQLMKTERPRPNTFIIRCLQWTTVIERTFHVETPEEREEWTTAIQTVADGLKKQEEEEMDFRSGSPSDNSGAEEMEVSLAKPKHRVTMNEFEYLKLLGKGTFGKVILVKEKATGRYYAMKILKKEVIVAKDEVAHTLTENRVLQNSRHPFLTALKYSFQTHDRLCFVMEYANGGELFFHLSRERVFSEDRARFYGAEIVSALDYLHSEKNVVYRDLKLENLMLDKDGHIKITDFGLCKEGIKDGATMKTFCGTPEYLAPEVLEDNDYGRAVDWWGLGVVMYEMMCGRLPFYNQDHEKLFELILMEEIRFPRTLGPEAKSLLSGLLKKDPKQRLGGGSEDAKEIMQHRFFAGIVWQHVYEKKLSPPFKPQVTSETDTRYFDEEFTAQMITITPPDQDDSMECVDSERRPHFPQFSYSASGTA
Procedure details: Inactive Akt Alpha Screen Assay (AKT1, crosstide substrate)
Experimental parameters: full-length inactive AKT1 activated by PDK1 and MAPKAPK2, lipid vesicles, 50 μM ATP; biotinylated crosstide substrate; read-out: Akt1 biochemical assay IC50 AlphaScreen crosstide
Form field: log10 of IC50 (one value per entry).
Log scale reminder: IC50 in nM, then log10 taken.

compound_structure=NC1(c2ccc(-n3c(-c4ccncc4)nc4ccc(-c5cccc(N6CCOCC6)c5)nc43)cc2)CCC1 readout_number=0.89
compound_structure=NC1(c2ccc(-n3c(-c4ccccn4)nc4ccc(-c5cccc(N6CCOCC6)c5)nc43)cc2)CCC1 readout_number=0.23
compound_structure=NC(=O)c1cccc(-c2ccc3nc(-c4ccccc4)n(-c4ccc(C5(N)CCC5)cc4)c3n2)c1 readout_number=0.80
compound_structure=NC1(c2ccc(-n3c(C4CCCCC4)nc4ccc(-c5cccc(N6CCOCC6)c5)nc43)cc2)CCC1 readout_number=3.06
compound_structure=COC(=O)c1ccccc1-c1nc2ccc(-c3cccc(N4CCOCC4)c3)nc2n1-c1ccc(C2(N)CCC2)cc1 readout_number=3.72

The reported log10 of IC50 of the compound "NC1(c2ccc(-n3c(-c4cc[nH]c4)nc4ccc(-c5cccc(N6CCOCC6)c5)nc43)cc2)CCC1" was 0.75

The reported log10 of IC50 of the compound "NC1(c2ccc(-n3c(-c4ccccc4)nc4ccc(-c5cccc(N6CCOCC6)c5)nc43)cc2)CCC1" was 0.54

The reported log10 of IC50 of the compound "NC1(c2ccc(-n3c(-c4cc[nH]n4)nc4ccc(-c5cccc(N6CCOCC6)c5)nc43)cc2)CCC1" was 0.86

Ref: patent US8815854B2
